System: A498
protocolText: NCI tumour cell line growth inhibition, 48 h
Calls of active or inactive are those of the source. Rule as the data show it: active = GI50 up to about 1.1 µM and inactive = higher.
Possible outcomes: class 1 = active, class 0 = inactive

{"compound": "N#CC(N)(C(=O)C(=O)NCCCNC(=O)C(=O)C(N)(C#N)c1ccc(Cl)cc1)c1ccc(Cl)cc1 (centres undefined)", "target": "A498", "groupLabel": "class 0"}
{"compound": "O=C(O)C1=NN(c2ccc(S(=O)(=O)O)cc2)C2(C1)C(Cl)C(=O)N2c1nc2ccccc2s1 (centres undefined)", "target": "A498", "groupLabel": "class 0"}
{"compound": "Cc1ccc(Nc2nc3c(=O)n(C)c(=O)n(C)c3nc2Nc2ccc(C)cc2)cc1", "target": "A498", "groupLabel": "class 0"}
{"compound": "O=C(O)c1ccc(NC(c2ccccc2)c2ccc3cccnc3c2O)cc1 (centres undefined)", "target": "A498", "groupLabel": "class 0"}
{"compound": "COc1ccc(NC(=O)/C(=N/NC(N)=S)C2C(=O)NC(=S)NC2=O)c(OC)c1", "target": "A498", "groupLabel": "class 0"}
{"compound": "COC1C(O)CC(OC2CC(Oc3cc4cc5c(c(O)c4c(O)c3C)C(=O)[C@@H](OC3CC(OC4CC(OC6CC(C)(O)C(OC(C)=O)C(C)O6)C(O)C(C)O4)C(O)C(C)O3)[C@H]([C@H](OC)C(=O)[C@@H](O)[C@@H](C)O)C5)OC(C)C2OC(C)=O)OC1C (some centres undefined)", "target": "A498", "groupLabel": "class 1"}
{"compound": "N#Cc1ccc(-c2nc3c(N)ncnc3o2)cc1", "target": "A498", "groupLabel": "class 0"}
{"compound": "Cc1ccc(C)c(N2C(=O)C(=O)C(c3nc4ccccc4o3)C(=O)C2=O)c1", "target": "A498", "groupLabel": "class 0"}
{"compound": "CC(=O)OC1C(O)C(C)OC(OC2C(OC(=O)C3CCC4C(C3)OC3(CC(OC(=O)/C=C/c5ccccc5)C(C)CO3)C43CO3)OC(C)C(O)C2OC(C)=O)C1O (centres undefined)", "target": "A498", "groupLabel": "class 1"}
